# Lookup of reported log10 Ki keyed by entry
- test-target: Histamine H3 receptor (Cavia porcellus)
- Sequence (Q9JI35 whole entry): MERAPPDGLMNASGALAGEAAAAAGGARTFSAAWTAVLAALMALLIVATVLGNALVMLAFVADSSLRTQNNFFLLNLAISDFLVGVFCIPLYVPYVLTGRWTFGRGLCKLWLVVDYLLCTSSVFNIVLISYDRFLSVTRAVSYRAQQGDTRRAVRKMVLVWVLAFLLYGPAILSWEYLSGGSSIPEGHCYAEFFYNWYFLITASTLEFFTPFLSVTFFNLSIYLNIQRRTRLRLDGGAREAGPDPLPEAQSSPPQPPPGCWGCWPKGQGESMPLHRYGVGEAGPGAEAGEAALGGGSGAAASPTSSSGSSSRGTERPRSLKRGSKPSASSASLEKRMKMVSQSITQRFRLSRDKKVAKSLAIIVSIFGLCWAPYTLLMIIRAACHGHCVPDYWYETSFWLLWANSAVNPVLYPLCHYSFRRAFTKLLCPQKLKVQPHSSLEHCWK
- protocol-description: Histamine H3 radioligand binding assay, guinea pig cortex ([3H]-R-α-methylhistamine)
- Set-up: The cortex was dissected, weighed and homogenised in ice-cold 20 mM Hepes-NaOH buffer; from tissue; host or cells: guinea pig cerebral cortex membranes
- condition-description: guinea pig cortex membranes; [3H]-R-α-methylhistamine 0.1 nM; typical variance ±0.12 log units; read-out: pKI (binding assay) - cortex (converted)
readout-name: log10 Ki (log10 of the value in nM)

>>> number("NCC(CCCc1c[nH]cn1)CS(=O)(=O)NCc1ccc(Cl)cc1 (stereo not shown) [Example 38]")
0.12
>>> number("Cc1ccc(CNS(=O)(=O)CCCCCc2c[nH]cn2)cc1 [Example 29]")
0.79
>>> number("O=S(=O)(CCCCCCc1c[nH]cn1)NCc1ccc(Cl)cc1 [Example 7]")
0.46
>>> number("O=S(=O)(CC(O)CCCc1c[nH]cn1)NCc1ccccc1 (stereo not shown) [Example 14]")
1.91
>>> number("O=S(=O)(C/C=C/CCc1c[nH]cn1)NCc1ccc(Cl)cc1 [Example 33]")
-0.07
>>> number("O=S(=O)(CCCCCc1c[nH]cn1)NCc1cccc(Cl)c1 [Example 21]")
1.08
>>> number("O=S(=O)(CCCCCc1c[nH]cn1)NCc1ccc(Cl)cc1 [Example 5]")
0.42
>>> number("O=S(=O)(CCCCCc1c[nH]cn1)NCc1ccccc1Cl [Example 19]")
1.29
>>> number("O=S(=O)(CCCCCc1c[nH]cn1)NCc1ccc(F)cc1 [Example 28]")
0.85
>>> number("CNC(CCCc1c[nH]cn1)CS(=O)(=O)NCc1ccc(Cl)cc1 (stereo not shown) [Example 39]")
0.47
